Provide the reported pIC50 of each item.
- study_system: IR (NIH-3T3 cells over expressing human IGF-1R or IR) (Homo sapiens, UniProt P06213)
- Construct: expressed in transfected cells; host or cells: NIH-3T3 (mouse fibroblasts)
- Sequence (P06213 28-1382): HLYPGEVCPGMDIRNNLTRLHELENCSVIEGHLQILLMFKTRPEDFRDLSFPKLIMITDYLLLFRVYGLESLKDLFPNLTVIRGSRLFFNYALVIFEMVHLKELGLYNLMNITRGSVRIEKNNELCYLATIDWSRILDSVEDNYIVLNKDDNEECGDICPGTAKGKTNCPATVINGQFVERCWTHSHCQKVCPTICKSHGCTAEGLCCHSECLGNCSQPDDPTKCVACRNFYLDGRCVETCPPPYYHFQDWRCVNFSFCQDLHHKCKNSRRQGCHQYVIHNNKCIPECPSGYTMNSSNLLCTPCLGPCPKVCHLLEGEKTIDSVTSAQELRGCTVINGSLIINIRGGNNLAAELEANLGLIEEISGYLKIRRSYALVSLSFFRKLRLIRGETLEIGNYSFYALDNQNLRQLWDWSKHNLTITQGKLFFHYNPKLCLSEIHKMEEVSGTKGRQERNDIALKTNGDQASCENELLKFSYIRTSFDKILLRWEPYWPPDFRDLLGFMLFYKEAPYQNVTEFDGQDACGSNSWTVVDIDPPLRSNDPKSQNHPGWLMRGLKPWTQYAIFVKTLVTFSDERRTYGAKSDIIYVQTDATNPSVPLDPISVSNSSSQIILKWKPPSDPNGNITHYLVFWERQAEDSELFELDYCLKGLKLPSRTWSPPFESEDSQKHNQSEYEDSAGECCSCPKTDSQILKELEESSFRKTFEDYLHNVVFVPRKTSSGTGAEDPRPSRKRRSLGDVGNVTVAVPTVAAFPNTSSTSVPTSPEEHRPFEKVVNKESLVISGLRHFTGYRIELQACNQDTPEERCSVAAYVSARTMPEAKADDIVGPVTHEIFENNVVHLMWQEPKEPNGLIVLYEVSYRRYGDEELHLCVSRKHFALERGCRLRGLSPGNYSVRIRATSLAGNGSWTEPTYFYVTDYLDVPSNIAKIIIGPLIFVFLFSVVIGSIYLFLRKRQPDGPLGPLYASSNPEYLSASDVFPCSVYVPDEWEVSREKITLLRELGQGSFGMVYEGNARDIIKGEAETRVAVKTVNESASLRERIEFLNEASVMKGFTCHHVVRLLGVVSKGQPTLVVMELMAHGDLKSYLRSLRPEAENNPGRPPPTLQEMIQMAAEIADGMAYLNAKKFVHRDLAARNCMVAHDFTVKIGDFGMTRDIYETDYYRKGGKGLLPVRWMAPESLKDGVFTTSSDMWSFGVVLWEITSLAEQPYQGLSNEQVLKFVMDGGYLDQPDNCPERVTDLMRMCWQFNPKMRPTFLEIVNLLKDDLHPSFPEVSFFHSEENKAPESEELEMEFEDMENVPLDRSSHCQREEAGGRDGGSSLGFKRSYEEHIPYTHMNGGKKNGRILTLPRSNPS
- protocol_description: IR cellular autophosphorylation (DELFIA)
- Assay type: cell-based
- protocol_conditions: NIH-3T3 cells over expressing IR, insulin stimulated
pIC50: −log10 of the molar value.

Requested read-out: pIC50. Entry: "CCc1cc(Nc2nccc(-c3c(-c4ccc(OC)c(C(=O)Nc5c(F)cccc5F)c4)nc4ccccn34)n2)c(OC)cc1N1CCN(CCS(C)(=O)=O)CC1"
> 7.00

Moving on to the next compound: "COc1cc(N2CCC(N3CCN(CCF)CC3)CC2)ccc1Nc1nccc(-c2c(-c3ccc(OC)c(C(=O)Nc4c(F)cccc4F)c3)nc3cc(F)ccn23)n1"
> 7.00

Follow-up item: "CCOc1ccc(-c2nc3ccccn3c2-c2ccnc(Nc3ccc(N4CCC(N5CCCCC5)CC4)c(C)c3OC)n2)cc1C(=O)Nc1c(F)cccc1F"
6.30 to 7.00

Also check "CCCN1CCC(c2ccc(Nc3nccc(-c4c(-c5ccc(OC)c(C(=O)Nc6c(F)cccc6F)c5)nc5ccccn45)n3)c(OC)c2)CC1"
> 7.00

Next record, please: "CCCN1CCN(c2ccc(Nc3nccc(-c4c(-c5cccc(C(=O)Nc6c(F)cccc6F)c5)nc5ccccn45)n3)c(OCC)c2)CC1"
> 7.00

Return reported pIC50 values for all items listed beneath this line.
1. CCOc1cc(N2CCC(N3CCN(CCF)CC3)CC2)ccc1Nc1nccc(-c2c(-c3cccc(C(=O)Nc4c(F)cccc4F)c3)nc3ccccn23)n1
2. CCCN1CCC(c2cc(OC)c(Nc3nccc(-c4c(-c5ccc(OCC)c(C(=O)Nc6c(F)cccc6F)c5)nc5ccccn45)n3)cc2C)CC1
3. CCOc1ccc(-c2nc3ccccn3c2-c2ccnc(Nc3ccc(CCN4CCN(C)CC4)cc3OC)n2)cc1C(=O)Nc1c(F)cccc1F

1: > 7.00; 2: > 7.00; 3: > 7.00

Provide each entry's pIC50 from the list below.
1. CCCc1cc(C2CCN(CCS(C)(=O)=O)CC2)ccc1Nc1nccc(-c2c(-c3ccc(OCC)c(C(=O)Nc4c(F)cccc4F)c3)nc3ccccn23)n1
2. CC(C)Oc1cc(N2CCC(N3CCCCC3)CC2)ccc1Nc1nccc(-c2c(-c3cccc(C(=O)Nc4c(F)cccc4F)c3)nc3ccccn23)n1

1: > 7.00; 2: 6.30 to 7.00
